EXPERIMENTAL SYSTEM: SCRIB_1, Q14160
Sequence (Q14160 718-814): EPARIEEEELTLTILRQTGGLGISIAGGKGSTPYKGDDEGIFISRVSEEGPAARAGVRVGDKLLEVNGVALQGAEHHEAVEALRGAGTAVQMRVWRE
EXPERIMENTAL PROTOCOL: holdup assay
Set-up: key: below the threshold = too weak to quantify, mostly under pKd 3.1 to 4
MEASUREMENT CONDITIONS: plain residues with an end cap or a label only (N-terminal biotin on a linker: ado-ado)
Catalogue of pKd readings, one per entry.
// print number alone

EPQYQPGENL [SRC, P12931]
3.49
TNSRHGETTV [FZD2, Q14332]
4.25
KPGKGSETVV [FZD4, Q9ULV1]
4.04
EIPAQSPTCV [FZD10, Q9ULW2]
3.81
EDPRVEVTQF [SLC22A9, Q8IVM8]
3.91

Query: What pKd value was documented for this binder, TISFTQTSQF [SLC1A1, P43005] ?
Reply: 3.5

Query: What pKd value was documented for this binder, KKMLQRRTLL [OR8G1, Q15617] ?
Reply: 3.71

Query: What pKd value was documented for this binder, NISYRRESAI [KCNJ4, P48050] ?
Reply: 3.89

Query: What pKd value was documented for this binder, VLYPREGTEV [FOXI1, Q12951] ?
Reply: 3.99

Query: What pKd value was documented for this binder, PPGKHLVTEV [KCNA7, Q96RP8] ?
Reply: 4.72

Query: What pKd value was documented for this binder, ILRKSTTTTV [PRR16, Q569H4] ?
Reply: 3.76

Query: What pKd value was documented for this binder, NIAESLESLV [PTPRZ1, P23471] ?
Reply: 3.87

Query: What pKd value was documented for this binder, SVTSERETNI [SLC16A7, O60669] ?
Reply: 4.1
